Below, each entry is listed alongside its reported IC50.
Target: UniProt:P43235
Sequence (P43235 115-329): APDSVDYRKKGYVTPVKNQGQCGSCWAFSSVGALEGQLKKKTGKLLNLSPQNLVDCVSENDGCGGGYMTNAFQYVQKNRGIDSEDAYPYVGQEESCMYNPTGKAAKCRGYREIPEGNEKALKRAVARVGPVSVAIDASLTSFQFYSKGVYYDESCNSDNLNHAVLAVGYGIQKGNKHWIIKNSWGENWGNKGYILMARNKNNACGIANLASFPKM
Please give a number only; it is taken to be in nM.

Query: What is its IC50 for UniProt:P43235? Entry: COc1cc(OC)cc(C(=NNC(N)=S)c2cc(Br)cc(Br)c2)c1 [Compound 20]
Reply: 105

Query compound follows.
Query: What is its IC50 for UniProt:P43235? Entry: NC(=S)NN=C(c1cc(O)cc(O)c1)c1cc(Br)cc(Br)c1 [Compound 22]
Reply: 203

====

Target: cathepsin L (Homo sapiens)
Sequence (P07711 114-333): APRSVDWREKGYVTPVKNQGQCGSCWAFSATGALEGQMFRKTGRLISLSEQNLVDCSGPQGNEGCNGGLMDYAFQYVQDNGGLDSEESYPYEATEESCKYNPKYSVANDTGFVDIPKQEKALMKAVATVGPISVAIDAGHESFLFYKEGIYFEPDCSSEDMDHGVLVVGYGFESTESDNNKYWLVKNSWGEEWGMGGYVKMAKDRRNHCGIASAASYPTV
Assay: Cathepsin L inhibition assay
Assay type: biochemical
pIC50: −log10 of the molar value.
MEASUREMENT LABEL: pIC50

Query: What is its pIC50 for cathepsin L (Homo sapiens)? Entry: NC(=S)NN=C(c1cccc(Br)c1)c1cccc(OP(=O)(O)O)c1 [Compound 27]
Reply: < 5.00

====

Target: cathepsin B (Homo sapiens, UniProt P07858)
Assay: Cathepsin B inhibition assay
Format: biochemical
pIC50: −log10 of the molar value.
Below, each entry is listed alongside its reported pIC50.

Query: Value lookup for pIC50; key = COc1cc(OC)cc(C(=NNC(N)=S)c2cccc(Br)c2)c1 [Compound 19]
Reply: < 5.00

Query molecule follows.
Query: Value lookup for pIC50; key = COc1cc(OC)cc(C(=NNC(N)=S)c2cc(Br)cc(Br)c2)c1 [Compound 20]
Reply: < 5.00

====

Below, each entry is listed alongside its reported pIC50.
Biological target: cathepsin L (Homo sapiens)
Assay: Cathepsin L inhibition assay
Type: biochemical
Details: 2% DMSO, 5 min pre-incubation; average of minimum triplicate; some assays for Compound 27 with 0.1% Tween or 0.1% CHAPS; read-out: IC50 Values Cat L
pIC50: −log10 of the molar value.

Observe how each entry below is paired with its result.
Query: Value lookup for pIC50; key = NC(=S)NN=C(c1cccc(O)c1)c1cc(Br)cc(Br)c1
Reply: 6.69

Query: Value lookup for pIC50; key = NC(=S)NN=C(c1cc(O)cc(O)c1)c1cc(Br)cc(Br)c1
Reply: < 5.00

Query: Value lookup for pIC50; key = NC(=S)NN=C(c1cccc(O)c1)c1cccc(Br)c1
Reply: 6.72

Query: Value lookup for pIC50; key = NC(=S)NN=C(c1cc(O)cc(Br)c1)c1cc(O)cc(Br)c1
Reply: < 5.00

Query: Value lookup for pIC50; key = COc1cc(OC)cc(C(=NNC(N)=S)c2cccc(Br)c2)c1
Reply: < 5.00

***
Query: Value lookup for pIC50; key = COc1cc(OC)cc(C(=NNC(N)=S)c2cc(Br)cc(Br)c2)c1
Reply: < 5.00

Query: Value lookup for pIC50; key = NC(=S)NN=C(c1cc(O)cc(O)c1)c1cccc(Br)c1
Reply: ~5.00

====

Below, each entry is listed alongside its reported GI50.
Assay: HUVEC cytotoxicity
Format: cell-based
Settings: human, human umbilical vein endothelial cells (HUVEC)
Please give a number only; it is taken to be in µM.

Query: Value lookup for GI50; key = NC(=S)NN=C(c1cccc(O)c1)c1cccc(Br)c1
Reply: 26.9

Query molecule follows.
Query: Value lookup for GI50; key = NC(=S)NN=C(c1cccc(Br)c1)c1cccc(OP(=O)(O)O)c1
Reply: 20.2
